# STUDY TARGET: Human CB1 receptor (Homo sapiens)
# Construct: host or cells: CHO cells; the membrane fraction was prepared in house from the purchased recombinant line
# Sequence (P21554 whole entry): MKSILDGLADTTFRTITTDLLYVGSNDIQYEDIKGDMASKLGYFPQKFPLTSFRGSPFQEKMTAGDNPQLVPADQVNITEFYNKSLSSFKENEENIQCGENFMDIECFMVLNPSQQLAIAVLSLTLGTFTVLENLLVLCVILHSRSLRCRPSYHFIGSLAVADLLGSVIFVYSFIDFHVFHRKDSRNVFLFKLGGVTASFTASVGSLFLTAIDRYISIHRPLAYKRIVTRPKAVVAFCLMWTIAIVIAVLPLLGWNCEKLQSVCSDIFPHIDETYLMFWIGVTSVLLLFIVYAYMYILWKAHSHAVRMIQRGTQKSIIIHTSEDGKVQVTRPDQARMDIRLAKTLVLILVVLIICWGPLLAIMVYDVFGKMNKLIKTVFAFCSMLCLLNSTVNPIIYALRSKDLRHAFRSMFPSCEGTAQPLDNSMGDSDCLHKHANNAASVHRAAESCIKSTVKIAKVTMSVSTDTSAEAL
# ASSAY REMARKS: Human CB1 receptor binding assay ([3H]-CP55940 displacement)
# Description: [Human CB1 Receptor Binding Assay] (1) Preparation of human CB1 receptor (membrane fraction): Human CB1-expressing cell line: hCB1/CHO#C3 (Euroscreen) The receptor-expressing cells cultivated in the above medium were washed with phosphate buffer (×2) and thereto was added Buffer A (2 mL) under ice-cooling or 4° C. (the following procedures were also carried out at the same temperature). […]
RECORDED ENDPOINT: IC50

COc1c(C(=O)NN2CCN(c3ccc(C(F)F)cn3)CC2)nn(-c2ccccc2Cl)c1-c1ccc(Cl)cc1 [Example 339]; 10 to 100 nM

stdin: Quick one: give measured IC50 for COc1c(C(=O)NC2CCCC2)nn(-c2ccccc2Cl)c1-c1ccc(Cl)cc1 [Example 55]
stdout: 10 to 100 nM

----------
Overview of reported pIC50 across a group of molecules:
# STUDY TARGET: Human CB1 receptor (Homo sapiens)
# Construct: host or cells: CHO cells; the membrane fraction was prepared in house from the purchased recombinant line
# ASSAY REMARKS: Human CB1 receptor binding assay ([3H]-CP55940 displacement)
# RECORDED CONDITIONS: radioligand [3H]-CP55940, membrane fraction of hCB1/CHO cells, 30° C. for 90 minutes; read-out: IC50
pIC50: −log10 of the molar value.

Example entries and their recorded answers appear below.
COCCOc1c(C(=O)NN2CCCC2)nn(-c2ccccc2Cl)c1-c1ccc(C(F)(F)F)cc1 [Example 148]; 7.00 to 8.00
COc1c(C(=O)CN2CCS(=O)(=O)CC2)nn(-c2ccccc2Cl)c1-c1ccc(Cl)cc1 [Example 36]; 7.00 to 8.00
O=C(NN1CCC(F)(F)CC1)c1nn(-c2ccccc2Cl)c(-c2ccc(Cl)cc2)c1OC(F)F [Example 307]; > 8.00
COc1c(C(=O)NN(C)C)nn(-c2ccccc2Cl)c1-c1ccc(C(F)(F)F)cc1 [Example 134]; 7.00 to 8.00
COc1c(C(=O)NCC(F)(F)F)nn(-c2ccccc2Cl)c1-c1ccc(Cl)cc1 [Example 4]; 7.00 to 8.00
COc1c(C(=O)NN2CCN(C(=O)c3ccc(F)cc3F)CC2)nn(-c2ccccc2Cl)c1-c1ccc(Cl)cc1 [Example 216]; 7.00 to 8.00

stdin: Look up and state reported pIC50 for NC(=O)COc1c(C(=O)NN2CCC(C(N)=O)(c3ccccc3)CC2)nn(-c2ccccc2Cl)c1-c1ccc(Cl)cc1 [Example 276]
stdout: 7.00 to 8.00

stdin: Identify measured pIC50 corresponding to CCNC1(C(N)=O)CCN(C(=O)c2nn(-c3ccccc3Cl)c(-c3ccc(Cl)cc3)c2O)CC1 [Example 279]
stdout: 7.00 to 8.00

stdin: Look up and state reported pIC50 for CCNC(=O)NCCOc1c(C(=O)NN2CCCC2)nn(-c2ccccc2Cl)c1-c1ccc(Cl)cc1 [Example 288]
stdout: 6.30 to 7.00
